target: Progesterone receptor (Homo sapiens); test: qHTS assay to identify small molecule antagonists of the progesterone receptor (PR) signaling pathway (AID 1346795); settings: PR-UAS-bla HEK293T, beta-lactamase FRET ratio, 16 h; series mostly up to 92.4 µM; also: potency is read from the fitted curve at half-maximal effect
Results filed as inconclusive are left out. The source made the active and inactive calls. Calls follow the shape of the dose curve; as a rule, active = well fitted inhibition curve with a large enough effect in the signal ratio in the repeat runs (not every such curve was filed as active); inconclusive = weak or mixed curves; inactive = flat fitted curve, though single readings scatter; the % refers to the signal ratio.
measurement label: Potency

> print(dat)
                                   molecule  experimental.result
1  CCC(C)c1cc([N+](=O)[O-])cc([N+](=O)[O-])c1O (centres undefined)             inactive
2                                  OCC(O)CO             inactive
3  Cc1ccc(OP(=O)(Oc2ccc(C)cc2)Oc2ccc(C)cc2)cc1     15.4 µM (active)
4                         CC(C)c1ccc(CO)cc1             inactive

###

target: Cytochrome P450 3A4 (Homo sapiens) (UniProt P08684); assay: Cytochrome P450 Family 3 Subfamily A Member 4 (CYP3A4) small molecule antagonists: luciferase reporter qHTS assay (AID 1671201); settings: P450-Glo CYP3A4 enzyme, luciferin luminescence, 1 h; series mostly up to 115 µM; also: nearly all actives have a fitted effect of over 50% in size
Sequence (P08684 whole entry, looked up): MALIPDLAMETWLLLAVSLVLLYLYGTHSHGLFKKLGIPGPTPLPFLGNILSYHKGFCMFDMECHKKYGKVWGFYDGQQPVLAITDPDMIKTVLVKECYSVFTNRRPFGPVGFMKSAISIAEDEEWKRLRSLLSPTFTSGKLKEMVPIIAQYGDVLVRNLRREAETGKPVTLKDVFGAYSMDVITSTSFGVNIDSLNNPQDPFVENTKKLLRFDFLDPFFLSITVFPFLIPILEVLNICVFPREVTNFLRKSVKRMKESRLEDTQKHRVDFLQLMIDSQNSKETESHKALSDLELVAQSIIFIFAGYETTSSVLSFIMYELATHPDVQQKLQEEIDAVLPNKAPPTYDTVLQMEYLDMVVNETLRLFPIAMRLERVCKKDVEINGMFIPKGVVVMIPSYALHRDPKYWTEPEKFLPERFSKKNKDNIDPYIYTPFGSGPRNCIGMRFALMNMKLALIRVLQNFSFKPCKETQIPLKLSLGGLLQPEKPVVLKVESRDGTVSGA
Inconclusive results are not listed. The source made the active and inactive calls. Calls come from the whole dose curve; as a rule, active = well fitted inhibition curve with a large enough effect in the repeat runs; inconclusive = weak or mixed curves; inactive = no such curve, though single readings can be large or run the other way.
Pick one: active, inactive

Previously resolved entries follow.
> print(dat)
                                compound                             tested.system  assigned.category
1  CCCCC(CC)COC(=O)Cl (stereo not drawn)  Cytochrome P450 3A4 (Homo sapiens) (UniProt P08684)           inactive
2            Oc1c(Cl)c(Cl)c(Cl)c(Cl)c1Cl  Cytochrome P450 3A4 (Homo sapiens) (UniProt P08684)           inactive
3                               Nn1cnnc1  Cytochrome P450 3A4 (Homo sapiens) (UniProt P08684)           inactive
4                         CCCCN(CCCC)N=O  Cytochrome P450 3A4 (Homo sapiens) (UniProt P08684)           inactive
5     O=S(=O)(Oc1ccc(Cl)cc1)c1ccc(Cl)cc1  Cytochrome P450 3A4 (Homo sapiens) (UniProt P08684)           inactive
6                             O=Cc1ccco1  Cytochrome P450 3A4 (Homo sapiens) (UniProt P08684)           inactive

Record request — test call for `CC(C)(c1cc(Cl)c(O)c(Cl)c1)c1cc(Cl)c(O)c(Cl)c1`
active

Record request — test call for `NNC(N)=S`
inactive

###

experiment: qHTS assay to identify small molecule agonists of the estrogen related receptor (ERR) signaling pathway from Tox21 library (AID 1224849); conditions: ERR reporter cell line, ONE-Glo luciferase, 18 h; at 42.5 µM (top of the series); also: % is scaled to controls: 0 for no effect and ±100 for the full control effect; nearly all actives have a fitted effect of over 15% in size
measurement label: activity change, positive = activation (%)
Could you give me the number in %? Just the number is fine.

Here is how some molecules turned out for activity change, positive = activation.
> print(dat)
                      line.notation                       measurement.label  experimental.result
1                        NCc1cccnc1  activity change, positive = activation                 0.61
2  CCOP(=S)(OCC)O/N=C(\C#N)c1ccccc1  activity change, positive = activation                 3.78
3      Oc1cc(Cl)ccc1Oc1ccc(Cl)cc1Cl  activity change, positive = activation                -45.8

For the next question, use this molecule.
Annotate the molecule `CCC(C)(C)c1ccc(O)cc1` with its measured activity change, positive = activation.
-6.2
